test: Pharmacokinetics accompanying the efficacy in the MCT-induced rat model of pulmonary hypertension; type: in vivo, SD rats; details: Sprague-Dawley, rat, plasma, po; 3 mg/kg gavage, day 21, mean, n = 3; read-out: MRT0-inf
Assay Readout: MRT inf (h)
Hi! Could you send only the number? It should be in h, unit omitted.

INPUT: Read the entry `COCCNS(=O)(=O)Nc1ncnc(OCCOc2ncc(Br)cn2)c1-c1ccc2c(c1)OCO2` and write its reported MRT inf.
OUTPUT: 5.52

====

test: Pharmacokinetics accompanying the efficacy in the MCT-induced rat model of pulmonary hypertension; assay type: in vivo, SD rats; conditions: Sprague-Dawley, rat, plasma, po; 3 mg/kg gavage, day 21, mean, n = 3
Assay Readout: AUC(0-t) (ng·h/mL)
Hi! Could you send only the number? It should be in ng·h/mL, unit omitted.

INPUT: Read the entry COCCNS(=O)(=O)Nc1ncnc(OCCOc2ncc(Br)cn2)c1-c1ccc2c(c1)OCO2 [Compound of formula (I)] and write its reported AUC(0-t).
OUTPUT: 4220

====

experiment: Pharmacokinetics accompanying the efficacy in the MCT-induced rat model of pulmonary hypertension; format: in vivo, SD rats; settings: Sprague-Dawley, rat, plasma, po; 1 mg/kg gavage, day 21, mean, n = 3
Assay Readout: Tmax (h)
Hi! Could you send only the number? It should be in h, unit omitted.

INPUT: Read the entry COCCNS(=O)(=O)Nc1ncnc(OCCOc2ncc(Br)cn2)c1-c1ccc2c(c1)OCO2 [Compound of formula (I)] and write its reported Tmax.
OUTPUT: 1

====

assay: Pharmacokinetics accompanying the efficacy in the MCT-induced rat model of pulmonary hypertension; type: in vivo, SD rats; conditions: Sprague-Dawley, rat, plasma, po; 30 mg/kg gavage, day 21, mean, n = 3
Assay Readout: Cmax (nM)
Hi! Could you send only the number? It should be in nM, unit omitted.

INPUT: Read the entry CCCNS(=O)(=O)Nc1ncnc(OCCOc2ncc(Br)cn2)c1-c1ccc(Br)cc1 [Macitentan, reference compound] and write its reported Cmax.
OUTPUT: 1840

====

assay: Pharmacokinetics accompanying the efficacy in the MCT-induced rat model of pulmonary hypertension; assay type: in vivo, SD rats; settings: Sprague-Dawley, rat, plasma, po; 1 mg/kg gavage, day 21, mean, n = 3; read-out: MRT0-inf
Assay Readout: MRT inf (h)
Hi! Could you send only the number? It should be in h, unit omitted.

INPUT: Read the entry `COCCNS(=O)(=O)Nc1ncnc(OCCOc2ncc(Br)cn2)c1-c1ccc2c(c1)OCO2` and write its reported MRT inf.
OUTPUT: 3.64

====

assay: Pharmacokinetics accompanying the efficacy in the MCT-induced rat model of pulmonary hypertension; assay type: in vivo, SD rats; settings: Sprague-Dawley, rat, plasma, po; 3 mg/kg gavage, day 21, mean, n = 3; read-out: MRT0-last
Assay Readout: MRT last
Write the quantity with the unit trailing the number.

INPUT: Read the entry COCCNS(=O)(=O)Nc1ncnc(OCCOc2ncc(Br)cn2)c1-c1ccc2c(c1)OCO2 [Compound of formula (I)] and write its reported MRT last.
OUTPUT: 3.04 h

====

experiment: Pharmacokinetics accompanying the efficacy in the MCT-induced rat model of pulmonary hypertension; assay type: in vivo, SD rats; conditions: Sprague-Dawley, rat, plasma, po; 3 mg/kg gavage, day 21, mean, n = 3
Assay Readout: half-life (min)
Hi! Could you send only the number? It should be in min, unit omitted.

INPUT: Read the entry COCCNS(=O)(=O)Nc1ncnc(OCCOc2ncc(Br)cn2)c1-c1ccc2c(c1)OCO2 [Compound of formula (I)] and write its reported half-life.
OUTPUT: 218
